These entries and their values trace back to patent US20260042764A1.

tested-system: Avi-KRAS G12C (2-169) GTP/RAF1 RBD-3xFLAG (51-131) (Homo sapiens, UniProt P01116, G12C)
Construct: Avi-KRAS G12C (2-169)
Sequence (P01116 2-169 isoform P01116-2 G12C): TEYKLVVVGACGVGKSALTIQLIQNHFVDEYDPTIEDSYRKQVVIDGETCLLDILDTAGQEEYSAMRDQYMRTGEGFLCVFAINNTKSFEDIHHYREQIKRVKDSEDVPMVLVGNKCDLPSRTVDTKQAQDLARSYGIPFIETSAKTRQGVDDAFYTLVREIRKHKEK
procedure-summary: Raf1-KRAS G12C-GTP disruption HTRF assay (Biological Example 3)
Format: binding
condition-notes: KRAS G12C, GTP-loaded
measured-metric: IC50

If you can, please state the reported IC50 value of CCN(c1nc(OC[C@]23CCCN2C[C@H](F)C3)nc2c(F)c(-c3ccc(F)c4sc(N)c(C#N)c34)c(C(F)(F)F)cc12)[C@H]1CCN(C(=O)OC)C1 (atropisomer, axis not shown) [Compound 954] .
100 to 1000 nM

If you can, please state the reported IC50 value of CCN(c1nc(OC[C@@]23CCCN2C[C@H](F)C3)nc2c(F)c(-c3ccc(F)c4sc(N)c(C#N)c34)c(C(F)(F)F)cc12)[C@H]1CCN(C(=O)OC2CC(OC)C2)[C@@H]1C (stereo partly drawn) .
100 to 1000 nM

If you can, please state the reported IC50 value of CCN(c1nc(OC[C@@]23CCCN2C[C@H](F)C3)nc2c(F)c(-c3ccc(F)c4sc(N)c(C#N)c34)c(C(F)(F)F)cc12)[C@@H]1CCN(c2cccn(C)c2=O)C1 .
1000 to 10000 nM

###

# pIC50 per entry
tested-system: Avi-KRAS WT (1-169) GppNHp/RAF1 RBD-3xFLAG (52-151) (Homo sapiens)
Construct: Avi-KRAS WT (1-169)
Sequence (P01116 1-169 isoform P01116-2): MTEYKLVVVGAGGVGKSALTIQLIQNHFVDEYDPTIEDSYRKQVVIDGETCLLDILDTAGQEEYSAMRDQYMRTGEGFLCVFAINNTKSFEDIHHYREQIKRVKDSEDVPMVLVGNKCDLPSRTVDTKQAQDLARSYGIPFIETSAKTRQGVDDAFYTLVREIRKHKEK
procedure-summary: Raf1-KRAS WT-GppNHP disruption HTRF assay (Biological Example 1)
Assay type: binding
condition-notes: KRAS WT, GppNHp-loaded; Table 11
pIC50: −log10 of the molar value.

[
  {
    "compound": "CCN(c1nc(OC[C@@]23CCCN2C[C@H](F)C3)nc2c(F)c(-c3ccc(F)c4sc(N)c(C#N)c34)c(C(F)(F)F)cc12)[C@H]1CCN(C(C)=O)C1",
    "assay-result": "> 7.00"
  },
  {
    "compound": "CS(=O)(=O)C1CN(c2nc(OC[C@@]34CCCN3C[C@H](F)C4)nc3c(F)c(-c4ccc(F)c5sc(N)c(C#N)c45)c(C(F)(F)F)cc23)C1",
    "assay-result": "6.00 to 7.00"
  },
  {
    "compound": "CN(c1nc(OCC23CCCN2CCC3)nc2c(F)c(-c3ccc(F)c4sc(N)nc34)c(C(F)(F)F)cc12)[C@H]1C[C@H](O)C1 (atropisomer, axis not shown)",
    "assay-result": "5.00 to 6.00"
  },
  {
    "compound": "CCN(c1nc(OC[C@@]23CCCN2C[C@H](F)C3)nc2c(F)c(-c3ccc(F)c4sc(N)c(C#N)c34)c(C(F)(F)F)cc12)[C@@H]1CCN(C(C)=O)C1",
    "assay-result": "> 7.00"
  },
  {
    "compound": "CC(=O)N1CCC(N(C)c2nc(OCC34CCCN3CC(F)C4)nc3c(F)c(-c4ccc(F)c5scc(C#N)c45)c(C(F)(F)F)cc23)C1 (stereo not shown)",
    "assay-result": "< 5.00"
  },
  {
    "compound": "CC(=O)N1C[C@@H](F)[C@H](N(C)c2nc(OC[C@@]34CCCN3C[C@H](F)C4)nc3c(F)c(-c4ccc(F)c5sc(N)c(C#N)c45)c(C(F)(F)F)cc23)C1",
    "assay-result": "6.00 to 7.00"
  }
]

If you can, please state the reported pIC50 value of CC(=O)N(C)CCN(C)c1nc(OC[C@@]23CCCN2C[C@H](F)C3)nc2c(F)c(-c3ccc(F)c4sc(N)c(C#N)c34)c(C(F)(F)F)cc12 .
6.00 to 7.00

If you can, please state the reported pIC50 value of CCN(CCO)c1nc(OC[C@@H]2CC3(CC3)CN2C)nc2c(F)c(-c3ccc(F)c4sc(N)c(C#N)c34)c(C(F)(F)F)cc12 .
6.00 to 7.00

If you can, please state the reported pIC50 value of CN(c1nc(OCC23CCCN2CCC3)nc2c(F)c(-c3ccc(F)c4sc(N)nc34)c(C(F)(F)F)cc12)[C@@H]1CC[C@H](O)C1 (atropisomer, axis not shown) .
5.00 to 6.00

If you can, please state the reported pIC50 value of N#Cc1c(N)sc2c(F)ccc(-c3c(C(F)(F)F)cc4c(N5CC6(CC(O)C6)C5)nc(OC[C@@]56CCCN5C[C@H](F)C6)nc4c3F)c12 .
6.00 to 7.00

If you can, please state the reported pIC50 value of CN(CC(F)F)c1nc(OC[C@@]23CCCN2C[C@H](F)C3)nc2c(F)c(-c3ccc(F)c4sc(N)c(C#N)c34)c(C(F)(F)F)cc12 .
6.00 to 7.00

If you can, please state the reported pIC50 value of CC(=O)N1CCN(c2nc(OC[C@@]34CCCN3C[C@H](F)C4)nc3c(F)c(-c4ccc(F)c5sc(N)c(C#N)c45)c(C(F)(F)F)cc23)C[C@H]1CC#N .
< 5.00

If you can, please state the reported pIC50 value of CN(CCO)c1nc(OC[C@@]23CCCN2C[C@H](F)C3)nc2c(F)c(-c3ccc(F)c4sc(N)nc34)c(C(F)(F)F)cc12 .
5.00 to 6.00

If you can, please state the reported pIC50 value of C[C@]1(O)CCN(c2nc(OC[C@@]34CCCN3C[C@H](F)C4)nc3c(F)c(-c4ccc(F)c5sc(N)c(C#N)c45)c(C(F)(F)F)cc23)C1 .
6.00 to 7.00

If you can, please state the reported pIC50 value of N#Cc1c(N)sc2c(F)ccc(-c3c(C(F)(F)F)cc4c(N5CCC(F)(F)C5)nc(OC[C@@]56CCCN5C[C@H](F)C6)nc4c3F)c12 .
6.00 to 7.00

If you can, please state the reported pIC50 value of N#Cc1c(N)sc2c(F)ccc(-c3c(C(F)(F)F)cc4c(N5CCC5)nc(OC[C@@]56CCCN5C[C@H](F)C6)nc4c3F)c12 .
6.00 to 7.00

If you can, please state the reported pIC50 value of CCN(CCCO)c1nc(OC[C@@]23CCCN2C[C@H](F)C3)nc2c(F)c(-c3ccc(F)c4sc(N)c(C#N)c34)c(C(F)(F)F)cc12 .
6.00 to 7.00

If you can, please state the reported pIC50 value of CC(=O)N1CCN(c2nc(OC[C@@]34CCCN3C[C@H](F)C4)nc3c(F)c(-c4ccc(F)c5sc(N)c(C#N)c45)c(C(F)(F)F)cc23)C[C@@H]1CC#N .
5.00 to 6.00

If you can, please state the reported pIC50 value of N#Cc1c(N)sc2c(F)ccc(-c3c(C(F)(F)F)cc4c(N5CC[C@@H](CO)C5)nc(OC[C@@]56CCCN5C[C@H](F)C6)nc4c3F)c12 .
6.00 to 7.00

If you can, please state the reported pIC50 value of C[C@H]1COCCN1c1nc(OC[C@@]23CCCN2C[C@H](F)C3)nc2c(F)c(-c3ccc(F)c4sc(N)c(C#N)c34)c(C(F)(F)F)cc12 .
6.00 to 7.00

If you can, please state the reported pIC50 value of COC[C@H]1CCN1c1nc(OC[C@@]23CCCN2C[C@H](F)C3)nc2c(F)c(-c3ccc(F)c4sc(N)c(C#N)c34)c(C(F)(F)F)cc12 .
6.00 to 7.00

If you can, please state the reported pIC50 value of N#CCC[C@H]1CCN(c2nc(OC[C@@]34CCCN3C[C@H](F)C4)nc3c(F)c(-c4ccc(F)c5sc(N)c(C#N)c45)c(C(F)(F)F)cc23)C1 .
5.00 to 6.00
